- System: S6 Ribosomal Protein phosphorylation Ser235/236 in TSC1 null mouse embryo fibroblast (MEF) cells
- assay notes: Reverse protein array, S6 Ribosomal Protein phosphorylation in TSC1 null MEF cells
- Type: cell-based
- recorded conditions: 1 h, TSC1-/- MEFs, 60 minutes, read-out: p-S6 IC50
quantity kind: pIC50
Please express pIC50 as -log10 of the molar concentration.

- compound: "COc1ccc(-n2c(=O)n(C)c3cnc4ccc(-c5ccc6nccn6c5)cc4c32)c(OC)n1 [Example 8.10]"
  pIC50: 8.17
- compound: "CCOc1cc(-c2ccc3ncc4c(c3c2)n(-c2cccnc2C)c(=O)n4C)cnc1C [Example 2.22]"
  pIC50: 7.92
- compound: "Cc1nc(N2CC(O)C2)ccc1-n1c(=O)n(C)c2cnc3ccc(-c4cncc(C(C)(C)O)c4)cc3c21 [Example 29.1]"
  pIC50: 7.82

For this compound ( CCOc1cc(-c2ccc3ncc4c(c3c2)n(-c2ccc(OCCOC)nc2C)c(=O)n4C)cnc1COC [Example 22.1] ), measured pIC50 is 8.15

Lab note: COCc1ncc(-c2ccc3ncc4c(c3c2)n(-c2ccc(OC)nc2OC)c(=O)n4C)cc1OC [Example 8.12] gave pIC50 of 8.40

Per the records, this compound ( CNc1cc(-c2ccc3ncc4c(c3c2)n(-c2ccc(F)nc2C)c(=O)n4C)cnc1CO [Example 7.11] ) has pIC50 equal to 8.15

Measured pIC50 of CNc1ccc(-c2ccc3ncc4c(c3c2)n(-c2ccc(N(C)CCOC)nc2C)c(=O)n4C)cn1 [Example 15.4] : 8.52

Note to self: pIC50 recorded for CNc1cc(-c2ccc3ncc4c(c3c2)n(-c2cccnc2C)c(=O)n4C)cnc1C [Example 2.32] was 8.70
